# measured on: IDO1 (Homo sapiens (Human), UniProt P14902)
# Sequence (P14902 whole entry): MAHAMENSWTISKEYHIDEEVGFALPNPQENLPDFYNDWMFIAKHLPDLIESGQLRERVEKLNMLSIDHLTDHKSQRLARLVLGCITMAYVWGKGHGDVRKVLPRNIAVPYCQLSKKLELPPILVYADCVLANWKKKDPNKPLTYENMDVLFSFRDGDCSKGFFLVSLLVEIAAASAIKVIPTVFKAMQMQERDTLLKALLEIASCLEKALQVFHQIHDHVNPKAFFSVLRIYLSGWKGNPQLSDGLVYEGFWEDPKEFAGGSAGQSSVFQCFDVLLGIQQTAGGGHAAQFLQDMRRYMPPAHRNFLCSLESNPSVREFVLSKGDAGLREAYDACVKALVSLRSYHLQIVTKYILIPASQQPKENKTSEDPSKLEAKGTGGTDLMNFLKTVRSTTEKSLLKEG
# experimental protocol: IDO1 Human Whole Blood Assay
# Type: cell-based
# condition summary: LPS and IFNγ 100 ng/mL, kynurenine by LC/MS/MS
property name: IC50 (nM)
Enter your answer as a number in nM; do not include the unit.

As a guide, the following entries are already answered.
O=c1ccc(CSc2nonc2/C(=N/O)Nc2ccc(F)c(Br)c2)n[nH]1 [Example 35] tested on IDO1 (Homo sapiens (Human), UniProt P14902) gave IC50: 923

Entry COC(=O)CNP(=O)(CSc1nonc1/C(=N/O)Nc1ccc(F)c(Br)c1)NCC(=O)OC [Example 120] under IDO1 (Homo sapiens (Human), UniProt P14902) had IC50 of 155

IC50 on IDO1 (Homo sapiens (Human), UniProt P14902) for COC(=O)CNP(=O)(CCSc1nonc1/C(=N/O)Nc1ccc(F)c(Br)c1)NCC(=O)OC [Example 44] is 130

Observed IC50, IDO1 (Homo sapiens (Human), UniProt P14902), O=C(CSc1nonc1/C(=N/O)Nc1ccc(F)c(Br)c1)NC[C@@H](O)CO [Example 42] : 519

Assay IDO1 (Homo sapiens (Human), UniProt P14902), sample N#Cc1cc(N/C(=N\O)c2nonc2SC[C@@H](O)CO)ccc1F [Example 140] , IC50 read: 384

Noted IC50 for OC[C@@H](O)CSc1nonc1/C(=N/O)Nc1ccc(F)c(Cl)c1 [Example 169] , tested on IDO1 (Homo sapiens (Human), UniProt P14902): 1290

So the reported IC50 for N#Cc1cc(N/C(=N\O)c2nonc2SC[C@H](O)CO)ccc1F [Example 147] , on IDO1 (Homo sapiens (Human), UniProt P14902), turned out to be 1210

Reported IC50 (IDO1 (Homo sapiens (Human), UniProt P14902)) for entry CC(=O)NCCSc1nonc1/C(=N/O)Nc1ccc(F)c(C#N)c1 [Example 37] is 469

Test item CNc1c(NCCSc2nonc2/C(=N/O)Nc2ccc(F)c(Br)c2)c(=O)c1=O [Example 36] ; IDO1 (Homo sapiens (Human), UniProt P14902); reported IC50 was 7110

// compound N#Cc1cc(N/C(=N\O)c2nonc2SCCNS(N)(=O)=O)ccc1F [Example 181] , assay IDO1 (Homo sapiens (Human), UniProt P14902), IC50 value: 3240

---
Bench note, IDO1 (Homo sapiens (Human), UniProt P14902): OC[C@@H](O)CSc1nonc1/C(=N/O)Nc1ccc(F)c(C(F)F)c1 [Example 168] , IC50 reads 475

Measured IC50 (IDO1 (Homo sapiens (Human), UniProt P14902)), entry O=C(CSc1nonc1/C(=N/O)Nc1ccc(F)c(Br)c1)N[C@@H]1C[C@@H](O)[C@@H](O)C1 [Example 144] : 3990

Measured IC50 (IDO1 (Homo sapiens (Human), UniProt P14902)), entry CS(=O)(=O)NCCSc1nonc1/C(=N/O)Nc1ccc(F)c(C#N)c1 [Example 171] : 660

# value of IC50, IDO1 (Homo sapiens (Human), UniProt P14902), item CC(=O)N[C@H](CO)CSc1nonc1/C(=N/O)Nc1ccc(F)c(Br)c1 [Example 173] = 827

Summary line: N#Cc1cc(N/C(=N\O)c2nonc2SC[C@H]2CCC(=O)N2)ccc1F [Example 148] , IDO1 (Homo sapiens (Human), UniProt P14902), reported IC50 = 1760

Measured on IDO1 (Homo sapiens (Human), UniProt P14902), N#Cc1cc(N/C(=N\O)c2nonc2SCCNC(=O)C2CC2)ccc1F [Example 40] has a documented IC50 of 1670

Entry O=C1CC[C@@H](CSc2nonc2/C(=N/O)Nc2ccc(F)c(Br)c2)N1 [Example 84] : IC50 on IDO1 (Homo sapiens (Human), UniProt P14902) = 184
